Source: PubChem BioAssay (Tox21)

- experiment_summary: qHTS assay to identify small molecule antagonists of the sonic hedgehog signaling (Shh) pathway - cell viability counter screen (AID 1259367); also: nearly all actives have a fitted effect of over 55% in size
- assay_conditions: NIH/3T3 Gli1-Luc viability, CellTiter-Fluor, 24 h; series mostly up to 92.4 µM
Results filed as inconclusive are left out. The source made the active and inactive calls. Calls follow the shape of the dose curve; as a rule, active = well fitted cell-killing curve with a large enough effect in the repeat runs; inconclusive = weak or mixed curves, or effect the other way; inactive = no such curve, though single readings can be large or run the other way.
The categories you may choose from are true (active), false (inactive)

CCCC(=O)C(=O)O ... false
COc1cc(C(=O)NCCCCCC(=O)O)cc(OC)c1OC ... false
Cc1ccc(C(C)(C)O)cc1 ... false
CCc1ccccc1 ... false
O=C(O)c1cccc(-c2noc(-c3ccccc3F)n2)c1 ... false
Cc1ccc2c(Br)cc(Br)c(O)c2n1 ... false
Cc1cc(C)c(N)cc1C ... false
CN1CCCN=C1COC(=O)C(O)(c1ccccc1)C1CCCCC1 (centres undefined) ... false

Hi, do you know how COc1ccccc1N1CCN(CCCCNC(=O)c2ccc(-c3ccc(C(C)=O)cc3)cc2)CC1 came out in this test?
false

Hi, do you know how CCOC(=O)C1=C(C)NC(C)=C(C(=O)OC)C1c1cccc(Cl)c1Cl (centres undefined) came out in this test?
false

* * *

- experiment_summary: qHTS RealTime-Glo MT Cell Viability Assay in HepG2 cells - 40 hour (AID 1224870); also: nearly all actives have a fitted effect of over 50% in size
- assay_conditions: RealTime-Glo luminescence; series mostly up to 76.8 µM
Results filed as inconclusive are left out. Active and inactive are the calls of the source. Calls come from the whole dose curve; as a rule, active = well fitted cell-killing curve with a large enough effect in the repeat runs; inconclusive = weak or mixed curves, or effect the other way; inactive = flat fitted curve, though single readings scatter.
property_label: Potency

Cc1ccc(Cl)c(Nc2ccccc2C(=O)O)c1Cl ... inactive
Oc1c(I)cc(I)c2cccnc12 ... inactive
NC(=O)c1ccncc1 ... inactive
CC1=Nc2ccc3ccccc3c2C1(C)C ... inactive
CC1CC(OC(=O)C(O)c2ccccc2)CC(C)(C)N1C (centres undefined) ... inactive

Recorded Potency (molecule CCOC(=O)c1ccc(C#Cc2ccc3c(c2)C(C)(C)CCS3)nc1 ): inactive

Recorded Potency (molecule Clc1ccc(Nc2nnc(Cc3ccncc3)c3ccccc23)cc1 ): inactive

Recorded Potency (molecule CCC(C)COC(C)=O (centres undefined) ): inactive

Recorded Potency (molecule CCCC(=O)C(=O)O ): inactive

Recorded Potency (molecule Brc1cc2ccccc2c2ccccc12 ): inactive

Recorded Potency (molecule CC(C)=CCC/C(C)=C/CC/C(C)=C/C(=O)OCC(=O)[C@@]1(O)CC[C@H]2[C@@H]3CCC4=CC(=O)C=C[C@]4(C)[C@H]3[C@@H](O)C[C@@]21C ): inactive

Recorded Potency (molecule CN(C)CCN1C(=O)c2ccccc2N(C)c2ccccc21 ): inactive

* * *

- experiment_summary: qHTS assay to identify small molecule antagonists of the vitamin D receptor (VDR) signaling pathway - cell viability counter screen (AID 743225); also: nearly all actives have a fitted effect of over 50% in size
- assay_conditions: VDR-bla HEK293T viability, CellTiter-Glo luminescence, 16 h; series mostly up to 61 µM
Results filed as inconclusive are left out. Active and inactive are the calls of the source. Calls come from the whole dose curve; as a rule, active = well fitted cell-killing curve with a large enough effect in the repeat runs; inconclusive = weak or mixed curves, or effect the other way; inactive = no such curve, though single readings can be large or run the other way.
The categories you may choose from are active, inactive

Cc1cc(O)ccc1O ... inactive
CCCC(C(=O)OCCN(CC)CC)(c1ccccc1)c1ccccc1 ... active
C(=C\c1ccccc1)/c1ccccc1 ... inactive
C=C1CCC2CC1C2(C)C (stereo unspecified) ... inactive
O=C1c2ccccc2C(=O)c2c(O)c(O)cc(O)c21 ... inactive

For the next question, use this molecule.
Hi, do you know how N#CCc1ccc(Cl)cc1Cl came out in this test?
inactive

* * *

- experiment_summary: A CellTox Green Cytotoxicity Assay to monitor cytotoxicity in HepG2 cells - 24 hour (AID 1224878); also: nearly all actives have a fitted effect of over 45% in size
- assay_conditions: CellTox Green fluorescence; series mostly up to 76.8 µM
Inconclusive results are not listed. The source made the active and inactive calls. Calls come from the whole dose curve; as a rule, active = well fitted activation curve with a large enough effect in the repeat runs; inconclusive = weak or mixed curves; inactive = flat fitted curve, though single readings scatter.
The categories you may choose from are active, inactive

Nc1ncnc2c1ncn2[C@H]1CC[C@@H](CO)O1 ... inactive
Oc1c(I)cc(I)c2cccnc12 ... inactive
CC/C=C1/OC(=O)c2ccccc21 ... inactive
COc1cc(N)c(Cl)cc1C(=O)NC1CCN(CCCOc2ccc(F)cc2)CC1OC (configuration not stated) ... inactive
C=CC(=O)[O-].C=CC(=O)[O-].[Zn+2] ... inactive

Hi, do you know how CCOC(=O)c1ccc(OCCN2C[C@H](O)[C@@H](O)[C@H](O)[C@H]2CO)cc1 came out in this test?
inactive

Hi, do you know how C[C@]1(Cn2ccnn2)[C@H](C(=O)O)N2C(=O)C[C@H]2S1(=O)=O came out in this test?
inactive

Hi, do you know how Oc1cccc(Nc2ccccc2)c1 came out in this test?
inactive

Hi, do you know how CCCCN(CCCC)C(C(N)=O)c1ccc(OC)cc1 (configuration not stated) came out in this test?
inactive

Hi, do you know how C[C@@H]1CN(CCCn2c3ccccc3c3ccccc32)C[C@H](C)N1 came out in this test?
active

Hi, do you know how CCCCCCCCCCCCCCN(CCO)CCO came out in this test?
active

Hi, do you know how Cc1ccc(OC(=O)c2ccccc2O)cc1 came out in this test?
inactive

* * *

- study_target: Cytochrome P450 3A4 (Homo sapiens)
- experiment_summary: Cytochrome P450 Family 3 Subfamily A Member 4 (CYP3A4) small molecule antagonists: luciferase reporter qHTS assay (AID 1671201); also: nearly all actives have a fitted effect of over 50% in size
- assay_conditions: P450-Glo CYP3A4 enzyme, luciferin luminescence, 1 h; series mostly up to 115 µM
Inconclusive results are not listed. Calls of active or inactive are those of the source. Calls come from the whole dose curve; as a rule, active = well fitted inhibition curve with a large enough effect in the repeat runs; inconclusive = weak or mixed curves; inactive = no such curve, though single readings can be large or run the other way.
The categories you may choose from are active, inactive

Answered cases to consult:
CC(CO)CO ... inactive
C=C(C)C(=O)OCCCCCCCCCCCCC ... active
O=c1[nH]c2ccc(Cl)cc2o1 ... inactive
COc1cc(C(=O)NCCCCCC(=O)O)cc(OC)c1OC ... inactive
O[C@@H]1CO[C@H]2[C@@H]1OC[C@@H]2O ... inactive

Hi, do you know how C=COCC(C)C came out in this test?
inactive

Hi, do you know how CC(C)(c1ccccc1)c1ccccc1 came out in this test?
inactive

Hi, do you know how CC(=O)c1ccc([N+](=O)[O-])cc1 came out in this test?
inactive

Hi, do you know how CN(C)CCC=C1c2ccccc2C=Cc2ccccc21 came out in this test?
inactive

Hi, do you know how NC(=O)c1ccncc1 came out in this test?
inactive

Hi, do you know how CN1C(=O)N(c2ccccc2Br)Cc2cnc(Nc3ccc4c(c3)OCC(CO)O4)nc21 (stereo not given) came out in this test?
inactive

Hi, do you know how O=[N+]([O-])c1ccc(Nc2ccc(Nc3ccccc3)c(S(=O)(=O)O)c2)c([N+](=O)[O-])c1 came out in this test?
inactive

Hi, do you know how Nc1nnc(-c2ccc([N+](=O)[O-])o2)o1 came out in this test?
inactive

* * *

- study_target: Nuclear receptor subfamily 1 group I member 3 (Homo sapiens) (UniProt Q14994)
- Sequence (Q14994 whole entry, looked up): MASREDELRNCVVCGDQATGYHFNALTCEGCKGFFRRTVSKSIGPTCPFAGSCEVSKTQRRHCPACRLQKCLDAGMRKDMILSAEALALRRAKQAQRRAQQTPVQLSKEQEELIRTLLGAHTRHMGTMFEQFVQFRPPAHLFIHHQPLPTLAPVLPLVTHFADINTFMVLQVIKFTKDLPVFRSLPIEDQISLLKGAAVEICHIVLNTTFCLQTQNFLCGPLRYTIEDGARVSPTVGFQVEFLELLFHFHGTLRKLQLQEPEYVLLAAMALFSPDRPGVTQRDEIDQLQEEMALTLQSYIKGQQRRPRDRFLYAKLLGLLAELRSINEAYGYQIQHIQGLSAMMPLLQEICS
- experiment_summary: qHTS assay to identify small molecule agonists of the constitutive androstane receptor (CAR) signaling pathway (AID 1224839); also: nearly all actives have a fitted effect of over 15% in size; also: potency is read from the fitted curve at half-maximal effect;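 as to activation: HepG2 cells stably carrying human CAR and a CYP2B6 luciferase reporter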
- assay_conditions: HepG2 hCAR CYP2B6-luciferase, agonist mode, 24 h; series mostly up to 92.4 µM
Inconclusive results are not listed. Calls of active or inactive are those of the source. The call rests on the fitted dose curve; in most records, active means well fitted activation curve with a large enough effect in the repeat runs; inconclusive means weak or mixed curves; inactive means no such curve, though single readings can be large or run the other way.
property_label: Potency

Solved entries (count: 5):
NC(=O)c1ccncc1 ... inactive
CCCCCCCCC(CCCCCC)C(=O)O (configuration not stated) ... inactive
C/C=C(/C(=C/C)c1ccc(O)cc1)c1ccc(O)cc1 ... inactive
CC1(CN2CCC(n3c(=O)[nH]c4ccccc43)CC2)OCc2ccccc2-n2cccc21 (configuration not stated) ... inactive
CC1=C(Br)C(=O)C(Br)=C/C1=C(/c1ccccc1S(=O)(=O)O)c1cc(Br)c(O)c(Br)c1C ... inactive

Recorded Potency (molecule CC(CN(C)C)C(C)(O)Cc1ccc(Cl)cc1 (configuration not stated) ): inactive

Recorded Potency (molecule CCOC(C)=O ): inactive

Recorded Potency (molecule CCCCCC#CC(=O)OC ): inactive

Recorded Potency (molecule CCC(C)(C)OC ): inactive

Recorded Potency (molecule CC1(C)[C@@H](OC(=O)CCC(=O)O)CC[C@]2(C)[C@H]3C(=O)C=C4[C@@H]5C[C@@](C)(C(=O)O)CC[C@]5(C)CC[C@@]4(C)[C@]3(C)CC[C@@H]12 ): inactive

Recorded Potency (molecule O=C(OCC(O)CO)c1ccccc1Nc1ccnc2cc(Cl)ccc12 (configuration not stated) ): inactive

Recorded Potency (molecule c1ccc2c(c1)CCc1ccccc1N2 ): 54.8 µM (active)

Recorded Potency (molecule CNC(=O)c1cnn(-c2nc(N)c3ncn([C@@H]4O[C@H](CO)[C@@H](O)[C@H]4O)c3n2)c1 ): inactive

Recorded Potency (molecule COc1ccccc1NC(=O)c1cc2ccccc2cc1O ): 17.2 µM (active)

Recorded Potency (molecule CC(C)=CCC/C(C)=C/CC/C(C)=C/CCC(=O)OC/C=C(\C)CCC=C(C)C ): inactive

Recorded Potency (molecule O=C1Cc2ccccc2N1c1c(Cl)cccc1Cl ): 30.6 µM (active)

Recorded Potency (molecule CCOC(=O)c1ccc(OCCN2C[C@H](O)[C@@H](O)[C@H](O)[C@H]2CO)cc1 ): inactive

Recorded Potency (molecule C[C@@H]1CC(=O)NN=C1c1ccc(NN=C(C#N)C#N)cc1 ): inactive

Recorded Potency (molecule O=C(CCCN1CC=C(n2c(=O)[nH]c3ccccc32)CC1)c1ccc(F)cc1 ): inactive

Recorded Potency (molecule CC1(C)[C@H](C(=O)O)N2C(=O)C[C@H]2S1(=O)=O ): inactive

Recorded Potency (molecule NCCNCCO ): inactive
